test: Viability qHTS for spleen associated tyrosine kinase inhibitor (SYKi) naive MV4-11 cells (AID 1963823); conditions: MV4-11 AML viability, CellTiter-Glo luminescence, 72 h; series mostly up to 45 µM; also: nearly all actives have a fitted effect of over 40% in size
Records with an inconclusive call do not appear. Calls of active or inactive are those of the source. Calls follow the shape of the dose curve; as a rule, active = well fitted cell-killing curve with a large enough effect; inconclusive = small, poorly fitted or top-dose-only effect, or effect the other way; inactive = no such curve, though single readings can be large or run the other way.
Valid outcomes are listed here; reply with one: 1 = active, -1 = inactive

Q: What classification did CC(=O)N[C@@H](CCC(=O)O)C(=O)O end up with in this test?
A: -1

Q: What classification did O=C(NO)c1cnc(NC2(c3ccccc3)CC2)nc1 end up with in this test?
A: 1

Q: What classification did C[C@@H]1CCC2C(C)(C)[C@H](O)[C@H](O)C[C@]2(C)[C@@]12Cc1c(O)cc3c(c1O2)CN(CCCC(=O)O)C3=O (some centres undefined) end up with in this test?
A: -1

Q: What classification did COc1ccc2c3c1O[C@H]1C[C@@H](O)C=C[C@@]31CCN(C)C2 end up with in this test?
A: -1

Q: What classification did CC(C)Nc1cc(C(F)(F)F)cc2nc(NC(=O)c3cccnc3)nn12 end up with in this test?
A: 1

Q: What classification did C=CC(=O)Nc1cc(Nc2nccc(-c3cn(C)c4ccccc34)n2)c(OC)cc1N(C)CCN(C)C end up with in this test?
A: 1

Q: What classification did CN(C)C(N)=NC(=N)N end up with in this test?
A: -1

Q: What classification did CC(C)(C)c1nc2c3cc[nH]c(=O)c3c3cc(F)ccc3c2[nH]1 end up with in this test?
A: 1

Q: What classification did CN(C)c1cc(NC(=O)CNC(C)(C)C)c(O)c2c1C[C@H]1C[C@H]3[C@H](N(C)C)C(=O)C(C(N)=O)=C(O)[C@]3(O)C(=O)C1=C2O end up with in this test?
A: -1

Q: What classification did COc1ccc(-c2ccc(-c3cn(C(=O)N4CCCCC4c4ccccc4)nn3)cc2)cc1 (centres undefined) end up with in this test?
A: -1

Q: What classification did Clc1ccc(-c2nc3sccn3c2/C=N/OCc2ccc(Cl)c(Cl)c2)cc1 end up with in this test?
A: -1

Q: What classification did C=C1C[C@]23C[C@H]1CC[C@H]2[C@]1(C)CC[C@H](O)[C@@](C)(C(=O)O)[C@H]1[C@@H]3C(=O)O end up with in this test?
A: -1

Q: What classification did CCN=C1N[C@@H]2[C@@H](O)[C@H](O)[C@@H](CO)O[C@@H]2S1 end up with in this test?
A: -1

Q: What classification did CC1(C)CC[C@]2(C(=O)O)[C@H](O)C[C@]3(C)C(=CCC4[C@@]5(C)CC[C@H](O[C@@H]6OC[C@@H](O)[C@H](O)[C@H]6O)[C@@](C)(C(=O)O)C5CC[C@]43C)[C@@H]2C1 (some centres undefined) end up with in this test?
A: -1

Q: What classification did CC1CCCCN1CCCOC(=O)c1ccc(OC2CCCCC2)cc1 (centres undefined) end up with in this test?
A: 1

Q: What classification did COc1cc(C2Oc3c(O)cc(CCCO)cc3C2CO)ccc1O[C@H]1O[C@H](C)[C@@H](O)[C@H](O)[C@@H]1O (some centres undefined) end up with in this test?
A: -1

Q: What classification did CCCCCOc1ccc(-c2cc(-c3ccc(C(=O)N[C@H]4C[C@@H](O)[C@@H](O)NC(=O)C5[C@@H](O)[C@@H](C)CN5C(=O)C([C@H](O)CC(N)=O)NC(=O)C([C@H](O)[C@@H](O)c5ccc(O)c(OS(=O)(=O)O)c5)NC(=O)C5C[C@@H](O)CN5C(=O)C([C@@H](C)O)NC4=O)cc3)no2)cc1 (some centres undefined) end up with in this test?
A: -1

Q: What classification did O=C(O)C[C@@H](NC(=O)c1cc(-c2ccc(-c3ccncc3)cc2)cs1)c1ccccc1 end up with in this test?
A: -1

Q: What classification did COc1ccc2cc(OCC3(C(=O)O)CN(C(=O)c4ccc(F)cc4)C3)ccc2c1 end up with in this test?
A: -1

Q: What classification did CCC1NC(=O)c2cc(S(N)(=O)=O)c(Cl)cc2N1 (centres undefined) end up with in this test?
A: -1

Q: What classification did COc1cc(CCO)ccc1O[C@@H]1O[C@H](CO)[C@@H](O)[C@H](O)[C@H]1O end up with in this test?
A: -1

Q: What classification did Cc1cccc(-c2nn3c(c2-c2ccnc4ccc(C(N)=O)cc24)CCC3)n1 end up with in this test?
A: -1

Q: What classification did O=C(/C=C\n1cnc(-c2cc(C(F)(F)F)cc(C(F)(F)F)c2)n1)NNc1cnccn1 end up with in this test?
A: 1

Q: What classification did CC(C)(C)c1cc(C(C)(C)C)c(NC(=O)c2c[nH]c3ccccc3c2=O)cc1O end up with in this test?
A: 1

Q: What classification did O=C(C1=CCN2c3c(cccc31)OC[C@H]2CN1CCOCC1)c1cccc2ccccc12 end up with in this test?
A: 1

Q: What classification did COc1cc(/C=C/C(=O)O[C@@H]2O[C@H](CO)[C@@H](O)[C@H](O)[C@H]2O)ccc1O end up with in this test?
A: -1

Q: What classification did O=C1Nc2cc(Cl)ccc2Oc2ccccc21 end up with in this test?
A: -1

Q: What classification did CC(C)(C)C(=O)Oc1ccc(S(=O)(=O)Nc2ccccc2C(=O)NCC(=O)O)cc1 end up with in this test?
A: -1

Q: What classification did CC[C@@H](Nc1c(Nc2cccc(C(=O)N(C)C)c2O)c(=O)c1=O)c1ccc(C)o1 end up with in this test?
A: -1

* * *

assay: Viability qHTS for spleen associated tyrosine kinase inhibitor (SYKi) drug resistant MV4-11 cells (AID 1963824); settings: SYKi-resistant MV4-11 viability, CellTiter-Glo, 72 h; series mostly up to 45 µM; also: nearly all actives have a fitted effect of over 35% in size; also: potency is read from the fitted curve at half-maximal effect
Records with an inconclusive call do not appear. Activity calls are given as the source filed them. The call rests on the fitted dose curve; in most records, active means well fitted cell-killing curve with a large enough effect; inconclusive means small, poorly fitted or top-dose-only effect, or effect the other way; inactive means no such curve, though single readings can be large or run the other way.
measurement-name: Potency

Here's what some known entries look like.
[
  {
    "molecule": "CC[C@@H](C)Nc1cc(C(=O)NC2CC3CC[C@@H](C2)N3c2ccc(C(=O)C3CC3)cn2)c(C)cc1C(N)=O (stereo not given in full)",
    "Potency": "0.0259 µM (active)"
  },
  {
    "molecule": "CC(=O)NCCCS(=O)(=O)O",
    "Potency": "inactive"
  },
  {
    "molecule": "O=C(NCC(=O)N1CCCC1)Nc1ccc2cnccc2c1",
    "Potency": "8.2 µM (active)"
  },
  {
    "molecule": "O=C(c1ccccc1)c1c(O)cc(O)cc1O[C@@H]1O[C@H](CO)[C@@H](O)[C@H](O)[C@H]1O",
    "Potency": "inactive"
  },
  {
    "molecule": "C=C1CCC2[C@](C)(CO)CCC[C@@]2(C)[C@@H]1CCC1=CCOC1=O (stereo not given in full)",
    "Potency": "7.18 µM (active)"
  },
  {
    "molecule": "Cc1ccnc(NS(=O)(=O)c2ccc(N)cc2)n1",
    "Potency": "inactive"
  },
  {
    "molecule": "CC(C)(N)c1ccc(-c2nc3ccccc3nc2-c2ccccc2)cc1",
    "Potency": "14.8 µM (active)"
  },
  {
    "molecule": "O=S(=O)(c1ccc(Cl)cc1)N1CCN(c2ccnc3cc(Cl)ccc23)CC1",
    "Potency": "16.4 µM (active)"
  },
  {
    "molecule": "CC(C)c1onc(-c2c(Cl)cccc2Cl)c1COc1ccc(/C=C/c2cccc(C(=O)O)c2)c(Cl)c1",
    "Potency": "14.8 µM (active)"
  }
]

We next turn to a different molecule, shown below.
Q: So what's the measured Potency for this one? CCC(C)C(=O)OC1CC(O)C23C4OCC5(C(O)CC2C1(C)C(O)O4)C3C(=O)C(O)C1(C)C(O)(c2ccoc2)CC2OC251 (stereo not given)
A: 0.432 µM (active)

* * *

experiment: Viability qHTS for spleen associated tyrosine kinase inhibitor (SYKi) naive MV4-11 cells (AID 1963823); conditions: MV4-11 AML viability, CellTiter-Glo luminescence, 72 h; series mostly up to 45 µM; also: nearly all actives have a fitted effect of over 40% in size
Records with an inconclusive call do not appear. Active and inactive are the calls of the source. Calls follow the shape of the dose curve; as a rule, active = well fitted cell-killing curve with a large enough effect; inconclusive = small, poorly fitted or top-dose-only effect, or effect the other way; inactive = no such curve, though single readings can be large or run the other way.
Valid outcomes are listed here; reply with one: 1 (yes) = active, 0 (no) = inactive

Q: What classification did CN(C)/N=N/c1nc[nH]c1C(N)=O end up with in this test?
A: 0 (no)

Q: What classification did CC1(C)CCCC2(C)C(C(=O)O)=CCC12 (stereo not drawn) end up with in this test?
A: 0 (no)

Q: What classification did CCCCc1nc(C)c(CC(=S)N(C)C)c(=O)n1Cc1ccc(-c2ccccc2-c2nn[nH]n2)cc1 end up with in this test?
A: 0 (no)

Q: What classification did C=CCc1ccc(O[C@@H]2O[C@H](CO[C@@H]3O[C@H](CO)[C@@H](O)[C@H](O)[C@H]3O)[C@@H](O)[C@H](O)[C@H]2O)c(O)c1 end up with in this test?
A: 0 (no)

Q: What classification did C[C@]12C=CC(=O)C=C1[C@@H](F)C[C@@H]1[C@@H]2[C@@H](O)C[C@@]2(C)[C@H]1CC[C@]2(O)C(=O)CO end up with in this test?
A: 0 (no)

Q: What classification did CCCC(CCC)(C(=O)OCC)C(=O)OCC end up with in this test?
A: 0 (no)

Q: What classification did CNC(=O)c1ccccc1Nc1nc(Nc2ccc3c(c2OC)CCCC(N2CCN(CCO)CC2)C3)ncc1Cl (stereo not drawn) end up with in this test?
A: 1 (yes)

Q: What classification did CCCCCCCCCCCCCCCC[N+](C)(C)CCN(Cc1ccc(OC)cc1)c1ncccn1 end up with in this test?
A: 1 (yes)

Q: What classification did O=C1c2ccccc2C(=O)C1c1ccc(Br)cc1 end up with in this test?
A: 0 (no)

Q: What classification did CC(=O)Oc1cc(C(C)C)c(OCCN(C)C)cc1C end up with in this test?
A: 1 (yes)

Q: What classification did O=C(O)CCc1cc2ccoc2cc1O[C@@H]1O[C@H](CO)[C@@H](O)[C@H](O)[C@H]1O end up with in this test?
A: 0 (no)

Q: What classification did CC1(C)CC2C(O)C3=C(CC(C)(O)C2C1)C(=O)OC3O (stereo not drawn) end up with in this test?
A: 0 (no)

Q: What classification did COc1cccc(-c2cn(-c3ccc(CCN4CCC(O)CC4)cc3)c3ncnc(N)c23)c1 end up with in this test?
A: 1 (yes)
